measured_on: Myc proto-oncogene protein (Homo sapiens)
assay_method_text: ATG_Myc_CIS: Attagene CIS-FACTORIAL HepG2 Assay for human Myelocytomatosis (Myc) Proto-Oncogene Transcription Factor (AID 2282990)
run_conditions: HepG2, Attagene cis-reporter transcription factor activity; actives raise or lower the signal
Calls of active or inactive are those of the source. The calls were made as follows: active = hit-call score of the fitted dose curve at least 0.9, where 1 is the maximum; inactive = score below 0.9.
quantity_name: outcome

CC(C)(C)C1CCCCC1=O (configuration not stated) ... inactive
O=S(=O)(O)c1cc(S(=O)(=O)O)c2ccc3c(S(=O)(=O)O)cc(S(=O)(=O)O)c4ccc1c2c43 ... inactive
CCCCOCCOC(=O)COc1nc(Cl)c(Cl)cc1Cl ... inactive
O=C1CCCCCCCCCCC(=O)OCCO1 ... inactive
C=CC(C)(CCC=C(C)C)OC(=O)CC(C)C (configuration not stated) ... inactive
CC(C)(c1cc(Br)c(OCCO)c(Br)c1)c1cc(Br)c(OCCO)c(Br)c1 ... inactive
OCCNCc1ccccc1 ... inactive
